# STUDY_TARGET: T1, TRAF2, Q12933
# T1 chain: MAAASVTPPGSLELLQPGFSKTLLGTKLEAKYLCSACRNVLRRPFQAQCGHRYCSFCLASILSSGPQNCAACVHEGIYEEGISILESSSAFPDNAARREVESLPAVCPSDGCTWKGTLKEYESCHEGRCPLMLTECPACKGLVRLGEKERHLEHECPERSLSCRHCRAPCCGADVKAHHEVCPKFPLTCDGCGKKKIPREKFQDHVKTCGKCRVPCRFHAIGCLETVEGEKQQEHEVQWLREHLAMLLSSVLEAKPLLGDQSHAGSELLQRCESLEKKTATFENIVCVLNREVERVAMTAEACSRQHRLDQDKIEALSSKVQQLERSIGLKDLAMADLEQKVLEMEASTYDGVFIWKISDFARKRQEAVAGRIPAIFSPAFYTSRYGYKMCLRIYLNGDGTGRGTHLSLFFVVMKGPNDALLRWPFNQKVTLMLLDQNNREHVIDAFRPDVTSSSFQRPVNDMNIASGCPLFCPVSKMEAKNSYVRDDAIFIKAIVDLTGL
# ASSAY_INFO: median log2 fold change of GCK-ALFA target abundance (FLAG IP / Myc IP barcode read proportion) (log2 ratio); each designed protein is fused to an ALFA-tag nanobody in HEK293 cells to bring the named protein to FLAG-tagged glucokinase (GCK); Myc marks an untargeted standard; higher = target protein stabilised (more abundant)
# EXPERIMENTAL_CONDITIONS: target protein: 3xFLAG-MCP-GCK-ALFA reporter; HEK293 landing pad (RPLP)
Over roughly 1,800 sequences, “median log2 fold change of GCK-ALFA target abundance (FLAG IP / Myc IP barcode read proportion)” has its median near 0.14; the lowest 2% begin near -0.84. Shown is part of a subset that was picked to be rich in the lowest values.
Binary call on median log2 fold change: y from -0.7 upward, n beneath that.

| BINDER | ANSWER_LABEL |
| --- | --- |
| traf2_out_13_95_1103 (protein) SEETAKKIMEVADKMLDKVEELLEKLLEKAKKAGKLEEEIEKALHLARYQSINEAIHLLKELAKKYPEFKEELEETIKEIEALRKQAGKEVAKIIKEEKE | n |

Q: Given the entry traf2_out_11_79_931 (protein) SEKRKELEELIKKALKLVEELIKKLKEGNISEEEFAKTIEEILELLQRAMQLALELGLSDVLVLLSEARRHVLLSRTRNLEELEKAAKYLKEALKELEKE , answer whether its median log2 fold change meets or surpasses -0.7.
A: y
